System: HCT-116 wild-type cells
Measurement protocol: Inhibitory activity on proliferation of HCT-116 wild-type cells (Cell-Titer Glo)
Assay type: cell-based
Assay conditions: Homo sapiens, 144 h, incubated 6 d, 0-10,000 nM
Listed molecules paired with reported IC50
# unit: nM | format: bare number

Please review the following examples before continuing.
Molecule | Test target | IC50 [nM]
CN(C(=O)c1ccc2nc(N)c3ccccc3c2c1)C1COC(C)(C)c2cc(C(F)(F)F)ccc21 (stereo not drawn) [Example 20] | HCT-116 wild-type cells | 5870
CN(C(=O)c1ccc2nc(N)c3cnn(C)c3c2c1)[C@@H]1COC(C)(C)c2cc(C3=CCOCC3)ccc21 [Example 57] | HCT-116 wild-type cells | 880
CN(C(=O)c1cc2c(cn1)nc(N)c1cnn(C)c12)[C@@H]1COC(C)(C)c2cc(C(F)(F)F)ccc21 [Example 28] | HCT-116 wild-type cells | 226
CN(C(=O)c1ccc2nc(N)c3cnn(C)c3c2c1)[C@@H]1COC(C)(C)c2cc(N3CC4(COC4)C3)ccc21 [Example 49] | HCT-116 wild-type cells | 3850
Cc1nn(C)c2c1c(N)nc1ccc(C(=O)N(C)[C@@H]3COC(C)(C)c4cc(C(F)(F)F)ccc43)cc12 [Example 35] | HCT-116 wild-type cells | 2100

Provide IC50 value for the following molecule: CC1OCc2c1c(N)nc1ccc(C(=O)N(C)C3COC(C)(C)c4cc(C(F)(F)F)ccc43)cc21 (stereo not drawn) [Example 12]
2610

For the molecule CN(C(=O)c1cc2c3c(c(N)nc2cn1)COC3)C1COC2(CCC2)c2cc(C(F)(F)F)ccc21 (stereo not drawn) [Example 29] , give its measured IC50 value.
1790

Read the entry CN(C(=O)c1ccc2nc(N)c3cnn(C)c3c2c1)[C@@H]1COC(C)(C)c2cc(N3CCn4cncc4C3)ccc21 [Example 86] and write its reported IC50.
3790

Look up IC50 of CN(C(=O)c1cc2c3c(c(N)nc2cn1)COC3)[C@@H]1COC(C)(C)c2cc(C(F)(F)F)ccc21 [Example 26] and report it.
2050

Tell me IC50 reported for CN(C(=O)c1ccc2nc(N)c3cnn(C)c3c2c1)[C@@H]1COC(C)(C)c2cc(-c3cnn(C(F)(F)F)c3)ccc21 [Example 32]
1530

Read off the recorded IC50 for CN(C(=O)c1ccc2nc(N)c3cnn(C)c3c2c1)[C@H]1COC(C)(C)c2nc(C(F)(F)F)ccc21 [Example 51]
447

Answer with reported IC50 of CN(C(=O)c1ccc2nc(N)c3c(c2c1)CCC3)C1COC(C)(C)c2cc(C(F)(F)F)ccc21 (stereo not drawn) [Example 11]
3120

* * *

We begin with a simple list: items and their reported IC50.
Tested on: HCT-116 wild-type cells
Measurement protocol: Inhibitory activity on proliferation of HCT-116 wild-type cells (Cell-Titer Glo)
Type: cell-based
Assay conditions: Homo sapiens, 144 h, incubated 6 d, 0-10,000 nM
Please reply with the bare figure in nM and do not write the unit itself.

Please review the following examples before continuing.
Compound | Measurement name | Experimental result
CN(C(=O)c1ccc2nc(N)c3c(c2c1)COC3)C1COC(C)(C)c2cc(-c3ccnn3C)ccc21 (centres unmarked) [Example 10] | IC50 | 2060
CN(C(=O)c1ccc2nc(N)c3c(c2c1)COC3)C1COC(C)(C)c2cc(C(F)(F)F)ccc21 (centres unmarked) [Example 8] | IC50 | 3510
CN(C(=O)c1cc2c(cc1F)nc(N)c1cnn(C)c12)C1COC(C)(C)c2cc(C(F)(F)F)ccc21 (centres unmarked) [Example 15] | IC50 | 446
CN(C(=O)c1cc2c(cc1C(F)(F)F)nc(N)c1cnn(C)c12)[C@@H]1COC(C)(C)c2cc(C(F)(F)F)ccc21 [Example 38] | IC50 | 1470
CN(C(=O)c1cc2c(cn1)nc(N)c1cnn(C)c12)C1COC2(CCC2)c2cc(C(F)(F)F)ccc21 (centres unmarked) [Example 31] | IC50 | 285
Cn1ncc2c(N)nc3cnc(C(=O)N(C4CC4)C4COC5(CCC5)c5cc(C(F)(F)F)ccc54)cc3c21 (centres unmarked) [Example 87] | IC50 | 763
CN(C(=O)c1ccc2nc(N)c3cnn(C)c3c2c1)[C@@H]1COC(C)(C)c2cc(C(F)(F)F)ccc21 [Example 16] | IC50 | 487
CN(C(=O)c1cc2c(cc1C(F)(F)F)nc(N)c1cnn(C)c12)[C@@H]1COC2(CCC2)c2cc(C(F)(F)F)ccc21 [Example 77] | IC50 | 1030

Supply IC50 value. Item: CN(C(=O)c1ccc2nc(N)c3cnn(C)c3c2c1)[C@@H]1COC(C)(C)c2cc(N3CCC4(CC3)COC4)ccc21 [Example 75]
2610

Let me know recorded IC50 for CN(C(=O)c1ccc2nc(N)c3cnn(C)c3c2c1)[C@@H]1COC(C)(C)c2cc(N3CC(F)(F)C3)ccc21 [Example 76] , thanks.
2520

* * *

System: LU99 MTAP(-/-)deleted cells
Measurement protocol: Inhibitory activity on proliferation of LU99 MTAP(-/-)deleted cells (Cell-Titer Glo)
Assay type: cell-based
Assay conditions: Homo sapiens, Lu-99, 144 h, incubated 6 d, 0-1,000 nM
The label T is reserved for IC50 strictly under 20 nM; F covers values equal to or above it.

Solved cases below.
Molecule | Cat
CN(C(=O)c1cc2c3c(c(N)nc2cn1)COC3)C1COC2(CCC2)c2cc(C(F)(F)F)ccc21 (stereo not shown) | F
CN(C(=O)c1ccc2nc(N)c3ncncc3c2c1)[C@@H]1COC(C)(C)c2cc(C(F)(F)F)ccc21 | F
CN(C(=O)c1ccc2nc(N)c3cnn(C)c3c2c1)[C@@H]1COC(C)(C)c2cc(C(F)(F)F)ccc21 | T
CN(C(=O)c1ccc2nc(N)c3c(c2c1)CCOC3)[C@@H]1COC(C)(C)c2cc(C(F)(F)F)ccc21 | F

Take the molecule CN(C(=O)c1cc2c(cc1F)nc(N)c1cnn(C)c12)C1COC(C)(C)c2cc(C(F)(F)F)ccc21 (stereo not shown) and say whether its IC50 is less than 20 nM.
F

Does the reported IC50 of Cc1ncc(-c2ccc3c(c2)C(C)(C)OC[C@H]3N(C)C(=O)c2ccc3nc(N)c4cnn(C)c4c3c2)cn1 stay below 20 nM?
T

Please state whether IC50 is below 20 nM for CN(C(=O)c1ccc2nc(N)c3c(c2c1)OCC3)C1COC(C)(C)c2cc(C(F)(F)F)ccc21 (stereo not shown)
F

* * *

# IC50 values compiled below
System: HCT-116 wild-type cells
Measurement protocol: Inhibitory activity on proliferation of HCT-116 wild-type cells (Cell-Titer Glo)
Type: cell-based
Assay conditions: Homo sapiens, 144 h, incubated 6 d, 0-10,000 nM
Please state the figure in nM; there is no need to write the unit.

Molecule | Measurement name | Experimental result
CN(C(=O)c1ccc2nc(N)c3cnn(C)c3c2c1)C1COC(C)(C)c2nc(C(F)(F)F)ccc21 (stereo not drawn) [Example 39] | IC50 | 1140
CN(C(=O)c1ccc2nc(N)c3cnn(C)c3c2c1)[C@@H]1COC(C)(C)c2cc(N3CCNCC3)ccc21 [Example 83] | IC50 | 10500
CN(C(=O)c1ccc2nc(N)c3cnn(C)c3c2c1)C1COC(C)(C)c2cc(-c3cnc4cnccn34)ccc21 (stereo not drawn) [Example 48] | IC50 | 435
CN(C(=O)c1cc2c(cc1Cl)nc(N)c1cnn(C)c12)C1COC(C)(C)c2cc(C(F)(F)F)ccc21 (stereo not drawn) [Example 24] | IC50 | 156
CN(C(=O)c1cc2c(cc1F)nc(N)c1cnn(C)c12)C1COC(C)(C)c2cc(-c3ccnn3C)ccc21 (stereo not drawn) [Example 14] | IC50 | 286

Tell me IC50 reported for CN(C(=O)c1ccc2nc(N)c3cnn(C)c3c2c1)C1COC(C)(C)c2cc(-c3cnn(C)c3)ccc21 (stereo not drawn) [Example 7]
2520

* * *

Test system: HCT-116 wild-type cells
Measurement protocol: Inhibitory activity on proliferation of HCT-116 wild-type cells (Cell-Titer Glo)
Format: cell-based
Assay conditions: Homo sapiens, 144 h, incubated 6 d, 0-10,000 nM
Please note: IC50 exactly at 2000 nM is rule not met. Only values below 2000 nM get rule met.

Input CN(C(=O)c1ccc2nc(N)c3cnn(C)c3c2c1)[C@@H]1COC(C)(C)c2cc(-c3cscn3)ccc21 ; condition: IC50 strictly below 2000 nM. Does it hold?
rule met

Find out if reported IC50 for CN(C(=O)c1ccc2nc(N)c3c(c2c1)CCO3)C1COC(C)(C)c2cc(C(F)(F)F)ccc21 (stereo not drawn) is less than 2000 nM
rule not met

* * *

System: LU99 MTAP(-/-)deleted cells
Measurement protocol: Inhibitory activity on proliferation of LU99 MTAP(-/-)deleted cells (Cell-Titer Glo)
Assay type: cell-based
Assay conditions: Homo sapiens, Lu-99, 144 h, incubated 6 d, 0-1,000 nM
Measurement name: IC50
Note: a bare number is incomplete; add the unit.

Molecule | Test target | Experimental result
CC1OCc2c1c(N)nc1ccc(C(=O)N(C)C3COC(C)(C)c4cc(C(F)(F)F)ccc43)cc21 (stereo not shown) | LU99 MTAP(-/-)deleted cells | 32.3 nM
CN(C(=O)c1ccc2nc(N)c3ccncc3c2c1)C1COC(C)(C)c2cc(C(F)(F)F)ccc21 (stereo not shown) | LU99 MTAP(-/-)deleted cells | 25.5 nM
Cc1nn(C)c2c1c(N)nc1ccc(C(=O)N(C)[C@@H]3COC(C)(C)c4cc(C(F)(F)F)ccc43)cc12 | LU99 MTAP(-/-)deleted cells | 24.2 nM
CN(C(=O)c1cc2c(cc1C(F)(F)F)nc(N)c1cnn(C)c12)[C@@H]1COC(C)(C)c2cc(C(F)(F)F)ccc21 | LU99 MTAP(-/-)deleted cells | 15 nM
CN(C(=O)c1ccc2nc(N)c3c(c2c1)COC3)C1COC(C)(C)c2cc(-c3ccnn3C)ccc21 (stereo not shown) | LU99 MTAP(-/-)deleted cells | 18.3 nM
CN(C(=O)c1ccc2nc(N)c3cnn(C)c3c2c1)[C@@H]1COC(C)(C)c2cc(N3CC4(COC4)C3)ccc21 | LU99 MTAP(-/-)deleted cells | 19.2 nM

Next up:
Jot down IC50 (LU99 MTAP(-/-)deleted cells) of CN(C(=O)c1ccc2nc(N)c3cnn(C)c3c2c1)[C@@H]1COC(C)(C)c2cc(N3CCS(=O)(=O)CC3)ccc21 .
17 nM
